B1: Gamma-crystallin C, residues 4 to 79; numbered along this chain, P07315 (parent)
chain: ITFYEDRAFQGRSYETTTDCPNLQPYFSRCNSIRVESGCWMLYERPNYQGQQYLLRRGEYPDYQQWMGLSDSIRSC

Variants of: B1
Experiment: abundance fitness (aPCA) (normalised: wild type 0, dead -1); higher = more abundant; growth selection in yeast, the domain comes from the species named
Conditions: Homo sapiens
MET means recorded abundance fitness is -0.06 or above; NOT MET means it is below -0.06.

{"columns": ["seq-text", "category"],
 "data": [
  ["ITFYEDRAFQGRSYETTTDCPNLYPYFSRCNSIRVESGCWMLYERPNYQGQQYLLRRGEYPDYQQWMGLSDSIRSC [Q24Y]", "MET"],
  ["ITFYEDRAFQGRSYETTPDCPNLQPYFSRCNSIRVESGCWMLYERPNYQGQQYLLRRGEYPDYQQWMGLSDSIRSC [T18P]", "NOT MET"],
  ["ITFYEDRAFQGRSYETETDCPNLQPYFSRCNSIRVESGCWMLYERPNYQGQQYLLRRGEYPDYQQWMGLSDSIRSC [T17E]", "MET"],
  ["ITFYEDRAFQGRSYEDTTDCPNLQPYFSRCNSIRVESGCWMLYERPNYQGQQYLLRRGEYPDYQQWMGLSDSIRSC [T16D]", "NOT MET"],
  ["ITFYEDRAFQGRSYETTTDCPNLQPYFSFCNSIRVESGCWMLYERPNYQGQQYLLRRGEYPDYQQWMGLSDSIRSC [R29F]", "MET"],
  ["ITFYEDRAFQGRSYETTTDCPNLQPYFSRCNSIRVESGCWMLYERPNYQGQQYLLREGEYPDYQQWMGLSDSIRSC [R57E]", "MET"],
  ["ITFYEDRAFQGRSYETTTDCPNLQPYCSRCNSIRVESGCWMLYERPNYQGQQYLLRRGEYPDYQQWMGLSDSIRSC [F27C]", "NOT MET"],
  ["ITFYEDRAFQGRSYETTTDCPNLQPYFSRCNSIRVESGCWMLAERPNYQGQQYLLRRGEYPDYQQWMGLSDSIRSC [Y43A]", "NOT MET"],
  ["ITFYEDRAFQGRSYETTTDCPLLQPYFSRCNSIRVESGCWMLYERPNYQGQQYLLRRGEYPDYQQWMGLSDSIRSC [N22L]", "MET"],
  ["ITFYEDRAFQGRSYETTTDCPNLQPYFSVCNSIRVESGCWMLYERPNYQGQQYLLRRGEYPDYQQWMGLSDSIRSC [R29V]", "MET"],
  ["ITFYEDRAFQGRSYETTTDCPNLQPYFSRCNSIRVESGCWMLYERPNYQGQQYLLLRGEYPDYQQWMGLSDSIRSC [R56L]", "NOT MET"]
]}
